// provenance: patent US20230416191A1

# System: MV-411
# ASSAY_EXPLANATION: Cytotoxicity assay (Cell-titer-Glow, 72 hr)
# Assay type: cell-based
# CONDITION_NOTES: Homo sapiens, MV4-11; leukemia cell line MV-411, 72hr; read-out: IC50 for inhibition of MV-411
ENDPOINT: IC50 (µM)

record_smiles=Cl.NCCCOc1cc2ccccc2cc1C(=O)NCCOc1cc2ccccc2cc1C(=O)Nc1ccccc1F study_target=MV-411 endpoint=IC50 uom=µM reading=0.99

----------
# ASSAY_EXPLANATION: Mouse pharmacokinetics, plasma by LC-MS/MS
# Type: in vivo, mice (C57BL/6)
# CONDITION_NOTES: female C57BL/6 mice, single dose 5 mg/kg IV, read-out: IV bioavailability
ENDPOINT: bioavailability (%)

record_smiles=Cl.NCCCOc1cc2ccccc2cc1C(=O)NCCOc1cc2ccccc2cc1C(=O)Nc1ccccc1F uom=% reading=100

----------
# Tested on: CREB-mediated gene transcription
# ASSAY_EXPLANATION: Inhibition of CREB-mediated gene transcription (CRE Renilla luciferase reporter, forskolin stimulated)
# Assay type: cell-based
# CONDITION_NOTES: Homo sapiens, HEK-293T, 5 h, HEK293T CRE luciferase reporter cells, forskolin 10 uM
pIC50: −log10 of the molar value.
# label = criterion met if pIC50 >= 6 else criterion not met

record_smiles=NCCCOc1cc2ccccc2cc1C(=O)NCCOc1cc2ccccc2cc1C(=O)Nc1c(F)cccc1F class_label="criterion met"
record_smiles=NCCCOc1cc2ccccc2cc1C(=O)NCCOc1cc2ccccc2cc1C(=O)Nc1ccc(Cl)cc1Cl class_label="criterion not met"
record_smiles=NCCCOc1cc2ccccc2cc1C(=O)NCCOc1cc2ccccc2cc1C(=O)Nc1ccc(F)cc1 class_label="criterion met"
record_smiles=NCCCOc1cc2ccccc2cc1C(=O)NCCOc1cc2ccccc2cc1C(=O)Nc1ccc(Cl)cc1 class_label="criterion not met"
record_smiles=Cl.NCCCOc1cc2ccccc2cc1C(=O)NCCOc1cc2ccccc2cc1C(=O)Nc1ccccc1F class_label="criterion met"

----------
# ASSAY_EXPLANATION: Mouse pharmacokinetics, plasma by LC-MS/MS
# Type: in vivo, mice (C57BL/6)
# CONDITION_NOTES: po, female C57BL/6 mice, single dose 20 mg/kg orally, read-out: oral bioavailability
ENDPOINT: bioavailability (%)

record_smiles=Cl.NCCCOc1cc2ccccc2cc1C(=O)NCCOc1cc2ccccc2cc1C(=O)Nc1ccccc1F endpoint=bioavailability uom=% reading=67

----------
# System: A549
# ASSAY_EXPLANATION: Cytotoxicity assay (Cell-titer-Glow, 72 hr)
# Assay type: cell-based
# CONDITION_NOTES: Homo sapiens, A549 cells, read-out: IC50 for inhibition of A549
# Experimental: The cells were obtained from ATCC, IMDM was obtained from Lonza, and FBS was obtained from Hyclone. Cell-titer-Glow for cytotoxicity was from Promega. Sterile 96-well tissue culture plates were from Corning. […] Signals from the plate was measured using Victor-II plate reader. The raw data from the plate reader were exported to Excel. For each concentration of the drug tested the average signal and SD from the triplicate wells, as well as the percent cytotoxicity were calculated. […]
ENDPOINT: IC50 (nM)

record_smiles=Cl.NCCCOc1cc2ccccc2cc1C(=O)NCCOc1cc2ccccc2cc1C(=O)Nc1ccccc1F study_target=A549 reading=1490
